Ref: PubChem BioAssay AID2305

system: P. falciparum 3D7 growth, pLDH absorbance; assay: blood-stage malaria parasite growth potency – strain 3D7, dose response (AID 2305)
measure-name: log10 IC50 (log10 of the value in nM)
Quick note: numbers are log10 of IC50, with nM as the unit.

Examples from the recorded data:
compound	log10 IC50
CCCCCCCN(Cc1ccc(OC(C)(C)C(=O)OCC)cc1)C(=O)Nc1ccccc1OCC	3.01
O=C(NC1CCCC1)c1cc2c(=O)n3ccccc3nc2nc1NCCc1ccccc1	2.81
N=c1n(Cc2ccccc2)c2ccccc2n1CC(O)c1ccc(Cl)c(Cl)c1 (stereo not drawn)	2.92

Task: Tell me measured log10 IC50 for Cc1[nH]c2ccccc2c1CC1CCN(CC2CCN(C(=O)/C=C/c3ccc(Cl)c(Cl)c3)CC2)CC1 please.
Result: 2.98

Task: Could you please provide reported log10 IC50 for NC(=O)c1ccc(NC(=O)CN(Cc2ccc(Cl)cc2)S(=O)(=O)c2ccccc2)cc1 ? Thanks!
Result: 2.81

Task: Query log10 IC50 for CN(C)c1cccc2c1nc(-c1ccco1)n2CCNCc1ccccc1
Result: 2.91

Task: Recall and state the measured log10 IC50 for COc1ccc(-c2ccc(NC(=O)c3ccc(Cl)cc3)cc2)cc1CN1CCC(O)CC1 .
Result: 3.04

Task: Tell me log10 IC50 reported for COc1ccc(-c2cncc3ccc(C(=O)NCc4ccncc4)nc23)cc1
Result: 2.87

Task: // fetch log10 IC50 given entry COc1ccc(NC(=O)NC2CCN(CCCCCNC(=O)/C=C/c3ccc(Cl)c(Cl)c3)C2)c(OC)c1 (stereo not drawn)
Result: 2.91

Task: Provide one value: measured log10 IC50 of COc1ccc(NS(=O)(=O)c2ccc(C(=O)Nc3ccc(C(F)(F)F)cc3)cc2)cc1N1CCN(CC2CC2)CC1
Result: 2.92

Task: Check the records and state log10 IC50 for NC(N)=Nc1nc(-c2ccc(N=C(N)N3CCC[C@H]3CN3CCCC3)cc2)cs1
Result: 3.05

Task: Name the recorded log10 IC50 of the compound listed here: CS(=O)(=O)Nc1ccc2[nH]cc(C3C[C@H]4CC[C@@H](C3)N4CC3CCC(NC(=O)/C=C/c4ccc(Cl)c(Cl)c4)CC3)c2c1 (stereo partly drawn)
Result: 2.94

----------
As shown below, each of these compounds has a reported IC50 value.
system: P. falciparum 3D7 growth, pLDH absorbance; test: blood-stage malaria parasite growth potency – strain 3D7, dose response (AID 2305)
The figure you give is taken to be in nM; do not add the unit.

Record excerpt, results attached:
smiles-repr	measure-name	units-label	reported-result
c1ccc(Oc2ccc(Nc3ccnc(Nc4ccc(OCCN5CCCCC5)cc4)n3)cc2)cc1	IC50	nM	600
CCCc1cc(C(=O)N[C@@H](Cc2ccccc2)[C@H](O)CNC(C)C)c(F)c(N2CCCC2=O)c1	IC50	nM	940
CNC(=O)c1cnc(Nc2ccc(N3CCN(C)CC3)cc2)nc1Nc1cccc(OC)c1	IC50	nM	750
CC(C)c1ccc2oc(-c3ccc(NC(=O)c4ccc([N+](=O)[O-])o4)cc3)nc2c1	IC50	nM	340
CN1CCC[C@H]1COc1ccc(CN2CC[C@H](NC(=O)c3ccc(Cl)c(Cl)c3)C2)cc1Br	IC50	nM	980

Would you kindly look at the next entry?
Task: State its IC50: COc1ccc2ccccc2c1CON1C(N)=NC(N)=NC1(C)C
Result: 30
